This collection of values is drawn from patent US20210253562A1.

biological target: EP3 membrane (EP3 receptor) (Homo sapiens, UniProt P43115); construct: purchased Millipore HTS092M; assay: [3H]-PGE2 binding; EP3 competition binding (SPA)
property: pKi
Note on pKi: it is the negative log10 of concentration, concentration in mol/L.

Value of pKi reported for the compound `O=C(NS(=O)(=O)c1cc(Cl)c(Cl)s1)OC/C=C1\CCCc2cnn(Cc3ccc(Cl)cc3Cl)c21` is 9.00

Value of pKi reported for the compound `COc1ccc(Cl)cc1S(=O)(=O)NC(=O)NC/C=C1\CCCc2cnn(Cc3ccc(Cl)cc3Cl)c21` is 8.52

Value of pKi reported for the compound `COc1ccc(Cl)cc1S(=O)(=O)NC(=O)NC/C(F)=C1\CCCc2cnn(Cc3ccc(C(F)(F)F)cc3)c21` is 7.03

Value of pKi reported for the compound `COc1ccc(S(=O)(=O)NC(=O)NC/C(F)=C2\CCCc3cnn(Cc4ccc(Cl)cc4Cl)c32)cc1F` is 7.66

Value of pKi reported for the compound `COc1ccccc1S(=O)(=O)NC(=O)NC/C=C1\COCc2cnn(Cc3ccc(Cl)cc3Cl)c21` is 6.96

Value of pKi reported for the compound `O=C(NC/C=C1\CCCc2cnn(C3CCN(c4ccccn4)CC3)c21)NS(=O)(=O)c1cc(Cl)c(Cl)s1` is 8.10

Value of pKi reported for the compound `COc1ccc(S(=O)(=O)NC(=O)C/C=C2\CCCc3cnn(Cc4ccc(Cl)cc4Cl)c32)cc1` is 6.59

Value of pKi reported for the compound `COc1ccc(Cl)cc1S(=O)(=O)NC(=O)NC/C(F)=C1\CCCc2cnn(Cc3ccc(Cl)cc3Cl)c21` is 7.59

Value of pKi reported for the compound `O=C(NC/C=C1\CCCc2cnn(C3CCN(c4ccc(F)cc4)CC3)c21)NS(=O)(=O)c1cc(Cl)c(Cl)s1` is 9.00

Value of pKi reported for the compound `O=C(NC/C=C1\CCCc2cnn(Cc3ccc(Cl)cc3Cl)c21)NS(=O)(=O)c1ccc(Cl)s1` is 9.00

Value of pKi reported for the compound `O=C(NC/C(F)=C1\CCCn2nnc(-c3ccc(C(F)(F)F)cc3)c21)NS(=O)(=O)c1cc(Cl)c(Cl)s1` is 5.49

Value of pKi reported for the compound O=C(NC/C(F)=C1/c2c(cnn2Cc2ccc(Cl)cc2Cl)CCC1F)NS(=O)(=O)c1cc(Cl)c(Cl)s1 (stereo not drawn) is 8.52

Value of pKi reported for the compound `O=C(NS(=O)(=O)c1ccc(Cl)cc1)OC/C=C1/c2c(cnn2Cc2ccc(Cl)cc2Cl)CCC1(F)F` is 6.97

Value of pKi reported for the compound `O=C(NC/C(F)=C1\COCc2cnn(Cc3ccc(Cl)cc3Cl)c21)NS(=O)(=O)c1cc(Cl)c(Cl)s1` is 8.52

====

I'd appreciate it if you could supply IC50 values for the items below.
Molecular target: CHO cells over-expressing the EP3 receptor (Homo sapiens, UniProt P43115)
Sequence (P43115 1-390): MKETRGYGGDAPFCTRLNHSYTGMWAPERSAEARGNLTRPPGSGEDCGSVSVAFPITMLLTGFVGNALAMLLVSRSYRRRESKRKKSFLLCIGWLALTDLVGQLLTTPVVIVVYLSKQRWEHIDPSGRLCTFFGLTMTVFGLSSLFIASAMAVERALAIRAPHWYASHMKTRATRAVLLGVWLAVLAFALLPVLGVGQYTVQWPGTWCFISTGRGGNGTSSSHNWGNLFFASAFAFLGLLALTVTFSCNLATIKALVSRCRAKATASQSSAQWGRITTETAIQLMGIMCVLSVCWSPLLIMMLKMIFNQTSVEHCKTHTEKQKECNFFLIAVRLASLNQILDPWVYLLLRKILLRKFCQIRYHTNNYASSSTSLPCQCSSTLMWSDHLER
Test: CHO cell cAMP assay; EP3 cAMP antagonist dose response (sulprostone reference), HTRF
Conditions: sulprostone 700 nM (EC80) and FSK 2 μM (EC70); read-out: CHO_cAMP IC50
Reply numerically in nM, unit not repeated.

Value of IC50 reported for the compound `O=C(NC/C=C1\CCCc2cnn(-c3ccc(Br)cc3)c21)NS(=O)(=O)c1cc(Cl)c(Cl)s1` is 4

Value of IC50 reported for the compound `O=C(NC/C=C1\CCCc2cnn(Cc3ccc(Cl)cc3Cl)c21)NS(=O)(=O)c1ccc2c(c1)OCCO2` is 27

Value of IC50 reported for the compound `O=C(NC/C(F)=C1\CCCCc2cnn(Cc3ccc(Cl)cc3Cl)c21)NS(=O)(=O)c1ccc(Cl)cc1` is 120

Value of IC50 reported for the compound O=C(NC/C(F)=C1/c2c(cnn2Cc2ccc(Cl)cc2Cl)CCC1F)NS(=O)(=O)c1cc(Cl)c(Cl)s1 (centres unmarked) is 7

Value of IC50 reported for the compound `O=C(NC/C(F)=C1\CCCc2cnn(-c3ccc(C(F)(F)F)cc3)c21)NS(=O)(=O)c1ccc(Cl)s1` is 798

Value of IC50 reported for the compound `O=C(NC/C=C1\CCCc2cnn(-c3cccc(Br)c3)c21)NS(=O)(=O)c1cc(Cl)c(Cl)s1` is 258

Value of IC50 reported for the compound `O=C(NC/C(F)=C1\CCCc2cnn(Cc3ccc(Cl)cc3Cl)c21)NS(=O)(=O)c1cc2ccccc2s1` is 159

Value of IC50 reported for the compound `COc1ccc(Cl)cc1S(=O)(=O)NC(=O)NC/C(F)=C1\CCCc2cnn(Cc3ccc(Cl)cc3Cl)c21` is 160

Value of IC50 reported for the compound `O=C(NC/C(F)=C1\CCc2cnn(Cc3ccc(Cl)cc3Cl)c21)NS(=O)(=O)c1cc(Cl)c(Cl)s1` is 46

Value of IC50 reported for the compound `O=C(CC/C=C1\CCCc2cnn(Cc3ccc(Cl)cc3Cl)c21)NS(=O)(=O)c1ccc(Cl)s1` is 2

Value of IC50 reported for the compound `COc1ccc(F)cc1S(=O)(=O)NC(=O)NC/C(F)=C1\CCCc2cnn(Cc3ccc(Cl)cc3Cl)c21` is 272

Value of IC50 reported for the compound COc1ccc(Cl)cc1S(=O)(=O)NC(=O)NC/C(F)=C1/c2c(cnn2Cc2ccc(Cl)cc2Cl)CCC1F (centres unmarked) is 228

Value of IC50 reported for the compound `O=C(NS(=O)(=O)c1ccc(Cl)cc1)OC/C=C1\CC(F)(F)Cc2cnn(Cc3ccc(Cl)cc3Cl)c21` is 87
